Provenance of the data: the supplement of paper PMC6757056

Reported FACS-Seq fitted mean (log10) values for a set of variants
B1: library; a variant is named by its letters at N, in order (parent)
chain: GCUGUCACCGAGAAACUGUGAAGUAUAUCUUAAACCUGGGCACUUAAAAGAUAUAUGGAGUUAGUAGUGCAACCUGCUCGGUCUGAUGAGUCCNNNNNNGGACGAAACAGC

# Variants of: B1
# assay-method-text: FACS-Seq fitted mean relative fluorescence mCherry/BFP without ligand (log10 relative fluorescence); HEK293T; ligand: cyclic di-GMP (c-di-GMP-II aptamer); higher = higher reporter protein expression
# condition-parameters: ligand present: no
// keep it numeric: no unit symbol after the value

{"mutations": "UCGAAA", "reported-result": -0.535}
{"mutations": "GUGUGC", "reported-result": -0.979}
{"mutations": "CCUAUA", "reported-result": -0.492}
{"mutations": "CCCAUA", "reported-result": -0.471}
{"mutations": "CUGUUA", "reported-result": -0.289}

Input line: Param item = CCUCAA ; retrieve measured FACS-Seq fitted mean (log10).
Output line: 0.0135

Input line: Param item = UAUCAC ; retrieve measured FACS-Seq fitted mean (log10).
Output line: 0.171

Input line: Param item = UCACUU ; retrieve measured FACS-Seq fitted mean (log10).
Output line: -0.404

Input line: Param item = GGGGGC ; retrieve measured FACS-Seq fitted mean (log10).
Output line: -0.722

Input line: Param item = UACGGA ; retrieve measured FACS-Seq fitted mean (log10).
Output line: -1.08
